system: U-2932; assay: growth inhibition by drug plus 177Lu-lilotomab satetraxetan (1 - RLU/untreated control) (fraction); higher = stronger inhibition; settings: 10 nM; time (day): 6; 177Lu-lilotomab satetraxetan 1 ug/ml
Counter-ions that a name gives are not always drawn.
Provide the reported growth inhibition by drug plus 177Lu-lilotomab satetraxetan of each item.

State the recorded growth inhibition by drug plus 177Lu-lilotomab satetraxetan for every item in the following list.
1. CC[C@H](Nc1ncnc2[nH]cnc12)c1nc2cccc(F)c2c(=O)n1-c1ccccc1
2. Cn1cc(-c2ccc3nnc(C(F)(F)c4ccc5ncccc5c4)n3n2)cn1
3. COc1nc(C)cnc1NS(=O)(=O)c1cccnc1-c1ccc(-c2nnco2)cc1 [Zibotentan (ZD4054)]
4. C[N+](C)([O-])CCNc1ccc(NCC[N+](C)(C)[O-])c2c1C(=O)c1c(O)ccc(O)c1C2=O [Banoxantrone dihydrochloride]
5. COc1cc2c(cc1O)CC[C@@H]1[C@@H]2CC[C@]2(C)[C@@H](O)CC[C@@H]12
6. O=c1cc(-c2cccc3c2Sc2ccccc2S3)oc(N2CCOCC2)c1
7. Cc1ccc(-c2csc3ncnc(SCCC(=O)O)c23)cc1
8. CC(NC(=O)c1ccccc1/N=C/c1c(O)ccc2ccccc12)c1ccccc1 (configuration not stated)

[0.0112, 0.0612, 0.0711, -0.00428, 0.11, 0.166, 0.0699, 0.164]

// each listed compound needs a value for growth inhibition by drug plus 177Lu-lilotomab satetraxetan
1. Nc1ncn([C@@H]2O[C@H](CO)[C@@H](O)[C@H]2O)c(=O)n1
2. COc1cccc2c1C(=O)c1c(O)c3c(c(O)c1C2=O)C[C@@](O)(C(=O)CO)C[C@@H]3O[C@H]1C[C@H](N)[C@H](O)[C@H](C)O1
3. CN(C)C/C=C/C(=O)Nc1cc2c(Nc3ccc(F)c(Cl)c3)ncnc2cc1O[C@H]1CCOC1
4. O=C(O[C@@H]1Cc2c(O)cc(O)cc2O[C@@H]1c1cc(O)c(O)c(O)c1)c1cc(O)c(O)c(O)c1 [(-)-Epigallocatechin gallate]

-0.00849
0.687
0.0941
-0.022

Items follow; give growth inhibition by drug plus 177Lu-lilotomab satetraxetan for each.
1. Nc1[nH]nc2nnc(-c3c(-c4ccccc4)nn4ccccc34)cc12
2. Nc1ccc(C(=O)Nc2cccc(-c3nc(N4CCOCC4)c4oc5ncccc5c4n3)c2)cn1

1. 0.275
2. 0.133

Could you tell me growth inhibition by drug plus 177Lu-lilotomab satetraxetan for each of these compounds? They are listed below.
1. CCN(CC)CCCCNc1ncc2cc(-c3cc(OC)cc(OC)c3)c(NC(=O)NC(C)(C)C)nc2n1
2. CCCC(=O)[O-].[Na+] [Sodium butyrate]
3. CC(C)n1nc(-c2ccc3oc(N)nc3c2)c2c(N)ncnc21

1. 0.152
2. -0.015
3. 0.355

* * *

test system: U-2932; test: growth inhibition by drug alone (1 - RLU/untreated control) (fraction); higher = stronger inhibition; settings: 10 nM; time (day): 4; 177Lu-lilotomab satetraxetan 0 ug/ml
Counter-ions that a name gives are not always drawn.
property label: growth inhibition by drug alone
One number for each entry.

Sample answers from the record:
- C=CC(=O)N1CCC[C@@H](n2nc(-c3ccc(Oc4ccccc4)cc3)c3c(N)ncnc32)C1: 0.519
- O=C1c2c(O)ccc(O)c2C(=O)c2c(NCCNCCO)ccc(NCCNCCO)c21 [Mitoxantrone Hydrochloride]: 0.52
- CN(c1ncccc1CNc1nc(Nc2ccc3c(c2)CC(=O)N3)ncc1C(F)(F)F)S(C)(=O)=O: 0.0909

Please examine the following record next.
Sure, the documented growth inhibition by drug alone for CC(C)c1onc(-c2c(Cl)cccc2Cl)c1COc1ccc(/C=C/c2cccc(C(=O)O)c2)c(Cl)c1 is 0.0881
